- SYSTEM TESTED: IDH1 (R132H) (Homo sapiens, UniProt O75874, R132H)
- Sequence (O75874 whole entry R132H): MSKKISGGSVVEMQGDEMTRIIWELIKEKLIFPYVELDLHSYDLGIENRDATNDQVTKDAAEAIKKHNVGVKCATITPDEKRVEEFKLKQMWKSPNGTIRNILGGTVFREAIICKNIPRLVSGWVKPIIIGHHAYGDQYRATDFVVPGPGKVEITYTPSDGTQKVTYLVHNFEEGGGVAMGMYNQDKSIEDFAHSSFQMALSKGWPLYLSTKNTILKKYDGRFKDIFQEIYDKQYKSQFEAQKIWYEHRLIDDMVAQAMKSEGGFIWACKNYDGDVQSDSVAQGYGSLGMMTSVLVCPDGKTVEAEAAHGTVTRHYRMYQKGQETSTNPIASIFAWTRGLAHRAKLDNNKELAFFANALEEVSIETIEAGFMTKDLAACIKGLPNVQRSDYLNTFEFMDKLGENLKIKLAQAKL
- PROCEDURE DETAILS: IDH1 R132H enzyme assay, NADPH depletion by diaphorase/resazurin coupled detection
- Assay type: biochemical
- STUDY CONDITIONS: 60 min preincubation with enzyme/NADPH, 45 min reaction, room temperature
READOUT TYPE: IC50 (µM)

> print(dat)
                                   compound  assay.result
1  C=CC(=O)Nc1ccc(Nc2ccc([C@H](C)Nc3nccc(N4C(=O)OC[C@@H]4C(C)C)n3)cc2)cc1 [IS04]        0.0105

A = C=CC(=O)Nc1cccc(-c2cnc(C(C)Nc3nccc(N4C(=O)OC[C@@H]4C(C)C)n3)nc2)c1 (stereo partly drawn) [IS013]
B = C=CC(=O)N1CCC(Oc2ccc(C(C)Nc3nccc(N4C(=O)OC[C@@H]4C(C)C)n3)cn2)CC1 (stereo partly drawn) [IS07]
query: Input pair: A , B . Output: entry with lower IC50. // respond with label for picked entry
result: A

1 = C=CC(=O)Nc1ccc(Nc2ccc([C@H](C)Nc3nccc(N4C(=O)OC[C@@H]4C(C)C)n3)cc2)nc1 [IS03]
2 = C=CC(=O)N1CCN(Cc2ccc([C@H](C)Nc3nccc(N4C(=O)OC[C@@H]4C(C)C)n3)cc2)CC1 [IS01]
3 = C=CC(=O)Nc1ccc(N(C)c2cnc(C(C)Nc3nccc(N4C(=O)OC[C@@H]4C(C)C)n3)nc2)cc1 (stereo partly drawn) [IS012]
query: Hi! Can you put these in order of IC50, lowest number first? Write out the labels following the order that was asked for.
result: 2, 1, 3
(2: 0.00132 µM, 1: 0.00361 µM, 3: 0.161 µM)
